Molecular target: T1, 4H710-AA
T1 chain: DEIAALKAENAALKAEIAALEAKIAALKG
Assay: two-hybrid library CCmax;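 further: natural log of median RNA to DNA barcode read ratio; higher means stronger binding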
Settings: mean of both orientations
PROPERTY_NAME: interaction score
Keep it simple and answer with nothing but the number.

In the examples that follow, each entry is paired with its recorded interaction score.
Fill in reported interaction score for this entry: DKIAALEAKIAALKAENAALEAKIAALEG [4H2389-AA] 0.392

Fill in reported interaction score for this entry: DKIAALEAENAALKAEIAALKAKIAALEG [4H2253-AA] 0.741

Fill in reported interaction score for this entry: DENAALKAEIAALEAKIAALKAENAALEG [4H1579-AA] -1.33

// next entry
Fill in reported interaction score for this entry: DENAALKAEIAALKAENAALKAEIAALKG [4H1626-AA] -1.04
